System: monoclonal antibody 2G12 (anti-HIV gp120)
method: filter
applied conditions: each U is 5-ethynyl-dU glycosylated with Man4-azide by CuAAAC click (10 sites), T in the primer region unmodified; 20 mM Tris pH 7.5, 100 mM NaCl, 2 mM MgSO4, 0.02% Tween-20, room temperature, 3 h; after 7 SELMA rounds
measure: Kd (nM)
The reply should contain only the number, in nM.

Query: Hi! What's the reported Kd for CACCAAATACGGGTACGGGCCCGGCUGUUUCAGAUGCUGUAAGUAAGGUGACUGCGGAACAACAG [Man4-16 (clone 16 glyco-DNA)] on monoclonal antibody 2G12 (anti-HIV gp120)?
Reply: 220
